I'd be grateful if you could share measured yeast fitness for these entries.
B1: tRNA (parent)
chain: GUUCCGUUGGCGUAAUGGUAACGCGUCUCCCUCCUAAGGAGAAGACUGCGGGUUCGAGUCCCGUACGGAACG

- Variants of: B1
- procedure-summary: yeast fitness relative to wild type (ratio to wild type); higher = fitter; tRNA-Arg(CCU), competitive growth, 37 C, YPD
This sample holds only a part of the variants without activity.

GUUCUGUUGGUGUAAUGGUAACGCGUCUCCCUCCUAAGGAGAAGACUGCGGGUUCGAGUCCUGUACGAAACG [C5U C11U C62U G68A]: ≤ 0.5
GUUCCGUUAGUGUAAUGGUAACGCGUCUCCCUCCUCAGGAGAAGACUGCGGGUUCGAGUCCCGUACGCAACG [G9A C11U A36C G68C]: ≤ 0.5
GUUCCGUUGGCGUAAUGGUCACGCGUCUCCCUCCUAAAGAGAAGACUGCGGGUUCGUGUCCCGUACGGAACG [A20C G38A A57U]: ≤ 0.5

Answer for every listed entry: what is its yeast fitness? The entries follow.
1. GUUCCGUUGGCGUAAUGGUAACGCGUCUCCAUCCUAAGGAGAAGACUGCGGGUCCGAGUCCCGAACGGAACG [C31A U54C U64A]
2. GUUCCGUUGACGUAAUAGUAACGCGUCUCCCUCCUGACGAGAAGUUUGCGGGUUCGAGUCCCGUACUGAACG [G10A G17A A36G G38C A45U C46U G67U]
3. GUUCCGUUGGCGUAAUGGUCACGGGUCUGCCUCCUAGGGAGAAGACUGCGGGUUCGAGUCCCGUAGGGAACG [A20C C24G C29G A37G C66G]
4. GUUCCGUUGGCGUAAUGGUACCGCGUCUCCCUCCUAAGGAGAAGACUGCGGGUUCGUGUCCUGUACGGAACG [A21C A57U C62U]
5. GUUCCGUUGGAGUAAUGGUAACGCGUCUACCUCCUAUGGAGAAGACUGCGGGUUCGAGUCCCGUACGGAACG [C11A C29A A37U]
6. GUUCCGUUGGCGUAAUGGUAACGCGUCUGCCUCCUAAGGAGAAGACUGCGGGUUCGAGUACCGUACAGAACG [C29G C60A G67A]

1. ≤ 0.5
2. ≤ 0.5
3. ≤ 0.5
4. ≤ 0.5
5. ≤ 0.5
6. ≤ 0.5
